systemTested: FLJ13397 clone-derived protein (CARP) (Homo sapiens, UniProt Q9H8M7)
Construct: A human full-length cDNA clone was expressed as a protein with an N-terminal His tag; His tag (pDEST17 Gateway vector) (N); made in house; host or cells: Escherichia coli BL21star(DE3)pLysS
Sequence (Q9H8M7 whole entry): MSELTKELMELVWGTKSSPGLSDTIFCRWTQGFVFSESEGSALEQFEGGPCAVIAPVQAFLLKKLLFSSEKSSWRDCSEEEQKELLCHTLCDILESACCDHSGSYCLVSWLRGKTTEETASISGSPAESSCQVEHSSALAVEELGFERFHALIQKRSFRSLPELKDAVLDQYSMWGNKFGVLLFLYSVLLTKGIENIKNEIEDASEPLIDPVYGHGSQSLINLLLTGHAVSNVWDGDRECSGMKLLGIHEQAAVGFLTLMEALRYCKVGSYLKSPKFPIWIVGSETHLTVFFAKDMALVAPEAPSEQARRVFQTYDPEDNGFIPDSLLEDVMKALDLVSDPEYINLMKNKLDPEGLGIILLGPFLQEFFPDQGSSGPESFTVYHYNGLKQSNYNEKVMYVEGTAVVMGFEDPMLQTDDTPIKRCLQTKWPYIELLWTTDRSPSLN
experimentSummary: SEC/MS (size exclusion chromatography / mass analysis) interaction analysis between FLJ13397 clone-derived protein and compounds
Assay type: binding
assayConditions: compound 1 μM; protein 0 μM (protein-free reference)
recordedMetric: spectrum intensity of the extracted mass range (compound in SEC spin column filtrate)
Write no unit; give the number alone.

Completed entries (count: 2):
c1ccc2[nH]cnc2c1 = 2459590
CCCS(=O)(=O)c1ccc2[nH]c(N)nc2c1 = 825049

// returns reported spectrum intensity of the extracted mass range (compound in SEC spin column filtrate) for input CC(C)(C)c1ccc(C(O)CCCN2CCC(C(O)(c3ccccc3)c3ccccc3)CC2)cc1 (stereo not drawn)
1817431

###

systemTested: FLJ13397 clone-derived protein (CARP) (Homo sapiens, UniProt Q9H8M7)
Construct: A human full-length cDNA clone was expressed as a protein with an N-terminal His tag; His tag (pDEST17 Gateway vector) (N); made in house; host or cells: Escherichia coli BL21star(DE3)pLysS
experimentSummary: SEC/MS (size exclusion chromatography / mass analysis) interaction analysis between FLJ13397 clone-derived protein and compounds
Format: binding
assayConditions: compound 1 μM; protein 47.5 μM
We begin with a simple list: items and their reported spectrum intensity of the extracted mass range (compound in SEC spin column filtrate).
Form rule: numeric answer, no unit written next to it.

Solved entries:
CCCOc1ccc2nc(NC(=O)OC)[nH]c2c1 = 529117
OCCOCCN1CCN(C(c2ccccc2)c2ccc(Cl)cc2)CC1 (stereo not drawn) [Hydroxyzine] = 89527484

# next compound below
Which value of spectrum intensity of the extracted mass range (compound in SEC spin column filtrate) has been reported for COC(=O)Nc1nc2ccc(S(=O)(=O)c3ccccc3)cc2[nH]1 in the records?
2967134

###

systemTested: FLJ13397 clone-derived protein (CARP) (Homo sapiens, UniProt Q9H8M7)
Construct: A human full-length cDNA clone was expressed as a protein with an N-terminal His tag; His tag (pDEST17 Gateway vector) (N); made in house; host or cells: Escherichia coli BL21star(DE3)pLysS
experimentSummary: SEC/MS (size exclusion chromatography / mass analysis) interaction analysis between FLJ13397 clone-derived protein and compounds
Format: binding
assayConditions: compound 250 μM; protein 23.75 μM
Readings of spectrum intensity of the extracted mass range (compound in SEC spin column filtrate) for the listed compounds
Give the figure only, with no unit attached.

Answered examples (3):
Oc1ccc(CCN2CCC(Nc3nc4ccccc4n3Cc3ccc(F)cc3)CC2)cc1 = 339921213
COC(=O)Nc1nc2ccc(C(=O)c3ccccc3)cc2[nH]1 = 32097734
c1ccc2[nH]c(-c3cscn3)nc2c1 = 93902905

API: the following record is the query input.
Please look up its spectrum intensity of the extracted mass range (compound in SEC spin column filtrate): CCC[S+]([O-])c1ccc2[nH]c(NC(=O)OC)nc2c1 (stereo not shown) [Albendazole Sulfoxide]
532900104

###

systemTested: FLJ13397 clone-derived protein (CARP) (Homo sapiens)
Construct: A human full-length cDNA clone was expressed as a protein with an N-terminal His tag; His tag (pDEST17 Gateway vector) (N); made in house; host or cells: Escherichia coli BL21star(DE3)pLysS
experimentSummary: SEC/MS (size exclusion chromatography / mass analysis) interaction analysis between FLJ13397 clone-derived protein and compounds
Assay type: binding
assayConditions: compound 10 μM; protein 23.75 μM
compounds and their reported spectrum intensity of the extracted mass range (compound in SEC spin column filtrate)

Example entries begin here.
OC(c1ccccc1)(c1ccccc1)C1CCNCC1 [α,α-Diphenyl-4-piperidinomethanol] = 12131847
CCCOc1ccc2nc(NC(=O)OC)[nH]c2c1 [Oxibendazole] = 3533115
c1ccc2[nH]c(-c3cscn3)nc2c1 [Thiabendazole] = 45510612
Nc1nc2ccccc2n1Cc1ccccc1 [2-Amino-1-Benzylbenzimidazole, 2-Amino-1-benzylbenzimidazole] = 4509110
CCCS(=O)(=O)c1ccc2nc(NC(=O)OC)[nH]c2c1 [Albendazole Sulfone] = 5481616
COC(=O)Nc1nc2ccc([S+]([O-])c3ccccc3)cc2[nH]1 (stereo not drawn) [Oxfendazole] = 41004899

Request the reported spectrum intensity of the extracted mass range (compound in SEC spin column filtrate) associated with COC(=O)Nc1nc2ccc(S(=O)(=O)c3ccccc3)cc2[nH]1 [Fenbendazole Sulfone]
13569838

Fill blank: measured spectrum intensity of the extracted mass range (compound in SEC spin column filtrate) of the compound COC(=O)Nc1nc2ccc(C(=O)c3ccccc3)cc2[nH]1 [Mebendazole] is ____.
777305

For OCCOCCN1CCN(C(c2ccccc2)c2ccc(Cl)cc2)CC1 (stereo not drawn) [Hydroxyzine] , what is its reported spectrum intensity of the extracted mass range (compound in SEC spin column filtrate)?
108540593

Record request: spectrum intensity of the extracted mass range (compound in SEC spin column filtrate) value, item c1ccc2[nH]cnc2c1 [Benzimidazole]
1321952

Any idea what spectrum intensity of the extracted mass range (compound in SEC spin column filtrate) was measured for CCCSc1ccc2nc(NC(=O)OC)[nH]c2c1 [Albendazole] ?
1117765

If you can, please state the reported spectrum intensity of the extracted mass range (compound in SEC spin column filtrate) value of CCC[S+]([O-])c1ccc2[nH]c(NC(=O)OC)nc2c1 (stereo not drawn) [Albendazole Sulfoxide] .
13449119

Entry under review: COC(=O)Nc1nc2ccc(C(=O)c3cccs3)cc2[nH]1 [Nocodazole] . Reported spectrum intensity of the extracted mass range (compound in SEC spin column filtrate)?
6159010

What value of spectrum intensity of the extracted mass range (compound in SEC spin column filtrate) has been recorded for this entry: COC(=O)Nc1nc2ccccc2[nH]1 [Carbendazim]
21673683

Value lookup for spectrum intensity of the extracted mass range (compound in SEC spin column filtrate); key = CCCS(=O)(=O)c1ccc2[nH]c(N)nc2c1 [2-Amino-5-N-Propylsulphonylbenzimidazole, 2-Amino-5-N-propylsulphonylbenzimidazole]
1437041

###

systemTested: FLJ13397 clone-derived protein (CARP) (Homo sapiens, UniProt Q9H8M7)
Construct: A human full-length cDNA clone was expressed as a protein with an N-terminal His tag; His tag (pDEST17 Gateway vector) (N); made in house; host or cells: Escherichia coli BL21star(DE3)pLysS
experimentSummary: SEC/MS (size exclusion chromatography / mass analysis) interaction analysis between FLJ13397 clone-derived protein and compounds
Assay type: binding
assayConditions: compound 1 μM; protein 23.75 μM
Where a name gives a salt, the structure may show the parent alone.
spectrum intensity of the extracted mass range (compound in SEC spin column filtrate) values for the molecules below.
Write the number on its own, no unit after it.

Check out these entries, answers already filled in.
CC[C@@H](C(=O)[C@@H](C)[C@@H](O)[C@H](C)CCc1ccc(C)c(O)c1C(=O)O)[C@H]1O[C@](CC)([C@H]2CC[C@](O)(CC)[C@H](C)O2)C[C@@H]1C [Lasalocid sodium salt] = 11601595
COC(=O)Nc1nc2ccc(C(=O)c3ccccc3)cc2[nH]1 = 480780
CCCOc1ccc2nc(NC(=O)OC)[nH]c2c1 = 595458
COC(=O)Nc1nc2ccc(S(=O)(=O)c3ccccc3)cc2[nH]1 = 2681468
COC(=O)Nc1nc2ccc([S+]([O-])c3ccccc3)cc2[nH]1 (stereo not shown) = 29471243

Checklist item: spectrum intensity of the extracted mass range (compound in SEC spin column filtrate) tested on FLJ13397 clone-derived protein (CARP) (Homo sapiens, UniProt Q9H8M7), entry Oc1ccc(CCN2CCC(Nc3nc4ccccc4n3Cc3ccc(F)cc3)CC2)cc1 , value?
10091649

Notebook: pull reported spectrum intensity of the extracted mass range (compound in SEC spin column filtrate) for FLJ13397 clone-derived protein (CARP) (Homo sapiens, UniProt Q9H8M7), entry CCCS(=O)(=O)c1ccc2[nH]c(N)nc2c1
360734

###

# spectrum intensity of the extracted mass range (compound in SEC spin column filtrate) values compiled below
systemTested: FLJ13397 clone-derived protein (CARP) (Homo sapiens, UniProt Q9H8M7)
Construct: A human full-length cDNA clone was expressed as a protein with an N-terminal His tag; His tag (pDEST17 Gateway vector) (N); made in house; host or cells: Escherichia coli BL21star(DE3)pLysS
experimentSummary: SEC/MS (size exclusion chromatography / mass analysis) interaction analysis between FLJ13397 clone-derived protein and compounds
Format: binding
assayConditions: compound 10 μM; protein 47.5 μM
Experimental: BP-reaction was performed on human full-length cDNA clone and the cloning vector Gateway pDONR201 by the PCR cloning method using the Invitrogen Gateway system to yield an entry clone. […] A human full-length cDNA clone was expressed as a protein with an N-terminal His tag. […] Protein concentrations were measured using BCA Protein Assay (PIERCE), in consideration of the purity calculated by SDS-PAGE. […]
Give the figure by itself; no unit, no explanation.

Some solved entries appear below for comparison.
COC(=O)Nc1nc2ccc([S+]([O-])c3ccccc3)cc2[nH]1 (stereo not drawn) = 42911925
c1ccc2[nH]cnc2c1 = 2620286
c1ccc2[nH]c(-c3cscn3)nc2c1 = 41434122
CCCOc1ccc2nc(NC(=O)OC)[nH]c2c1 = 9671167
COC(=O)Nc1nc2ccc(C(=O)c3cccs3)cc2[nH]1 = 9316181

Consider now this further compound.
Using the record for COC(=O)Nc1nc2ccccc2[nH]1 , report its spectrum intensity of the extracted mass range (compound in SEC spin column filtrate).
32996198
